Form field: growth (one value per entry).
Test system: SF-295 CNS
protocol-description: NCI-60 one-dose screen, 48 h (100 = growth as untreated, 0 = no growth, -100 = all killed)
applied-conditions: 10 µM unless noted
Procedure: Cells are grown in 96 well plates and exposed to the test compound for 48 hours. Compounds are tested at a single concentration, which is 10^-5 M for most compounds. The reported endpoint is percent growth (GI% or GIPRCNT), where numbers from 0 - 100% represent growth inhibition, and numbers from -100% - 0 represent cell death. For example, a value of 40 represents 60% growth inhibition. A value of 0 means no net growth occurred over the course of the experiment. […]
Compounds without any hit were thinned out: in the full panel of roughly 83,000, 20% have a hit.
measured-endpoint: growth (%)

>>> reported_measurement("Cc1nc2ccc(Nc3nc(NCCN4CCOCC4)nc(Nc4ccc(F)cc4)n3)cc2n1Cc1ccccc1")
-36.8
>>> reported_measurement("O=C1CC2(O)CSc3nc(=O)cc(n32)N1 (stereo not drawn)")
88.8
>>> reported_measurement("N#Cc1c(N)n(C2OC(CO)C(O)C2O)c2ncnc(N)c12 (stereo not drawn)")
4.21
>>> reported_measurement("COc1c(C(=O)/C=C/c2ccc(C)o2)c(O)cc2occc12")
82.4
>>> reported_measurement("CC(=O)OC1Oc2ccccc2-c2oc3nc(=N)n(C)c-3cc21 (stereo not drawn)")
125
>>> reported_measurement("O=C(O)Cn1ccc2ccccc21")
113
>>> reported_measurement("COc1cc2c(cc1I)-c1c(cc(OC)c(OC)c1OC)CC[C@@H]2NC(C)=O")
-1.65
>>> reported_measurement("O=C(C(=O)c1cccnc1)c1cccnc1")
116

====

Tested on: SN12C renal
protocol-description: NCI-60 one-dose screen, 48 h
applied-conditions: 10 µM unless noted
About 83,000 compounds went through this panel and 20% of them were active in at least one assay; those are over-represented in the sample as a whole. Calls of active or inactive are those of the source. Rule for the calls: active = growth percent below 10; inactive = the rest.
Labels: active, inactive

>>> assigned_category("NNC(=O)Cc1ccccc1")
"inactive"
>>> assigned_category("O=C(NCC(c1ccsc1)N1CCCCCC1)c1ccc(C(F)(F)F)cc1 (stereo not given)")
"inactive"
>>> assigned_category("F")
"inactive"
>>> assigned_category("N#Cc1c(N)c(C(=O)c2ccc3c(c2)OCCO3)n2c1CCCC2")
"inactive"
>>> assigned_category("C#CC[C@@H]1C[C@]2(C)[C@H]3CC=C4[C@H]5[C@@H](C)[C@H](C)CC[C@]5(C(=O)NCCCCCCCCN)CC[C@@]4(C)[C@]3(C)CC[C@H]2C(C)(C)[C@H]1OC(C)=O")
"inactive"
>>> assigned_category("COc1ccc2[nH]c(C(=O)OCc3ccc4cccc(O)c4n3)cc2c1")
"active"
>>> assigned_category("CCN(CC)CCCNc1cccc2c(C)cc(OC)nc12")
"inactive"
>>> assigned_category("COc1ccc(/C(=C\\c2cc(OC)c(OC)c(OC)c2)C(=O)N2CCN(c3ccccc3)CC2)cc1O")
"inactive"
>>> assigned_category("O=C(OCc1ccc2c(Cl)cc(Cl)c(O)c2n1)c1cc2ccccc2[nH]1")
"active"
>>> assigned_category("COc1cc2cc(C(=O)Nc3ccccc3)c(N)nc2cc1OC")
"inactive"
>>> assigned_category("COc1ccc2[nH]cc(/C=C3\\C(=O)Nc4ccccc43)c2c1")
"inactive"
>>> assigned_category("COc1ccc(NC(=O)/C=C/c2ccc(NC(=O)N3CCCC3)cc2)cn1")
"inactive"
>>> assigned_category("O=C1Cc2c([nH]c3ccc([N+](=O)[O-])cc23)-c2ccccc2N1")
"inactive"
>>> assigned_category("Cc1nn(-c2ccc(Cl)cc2)c(=O)n1CCN1CCOCC1")
"inactive"
>>> assigned_category("Cc1cc(NC(=O)c2ccc(N)cc2)ccc1N=Nc1ccc2cc(S(=O)(=O)O)cc(S(=O)(=O)O)c2c1")
"inactive"

Taken from PubChem BioAssay (NCI).
